- system.name: UniProt:P06766
- assay: Activity of rat recombinant DNA polymerase beta using variable levels of DNA template-primer
recorded.metric: Ki

INSERT INTO results (smiles_notation, recorded_metric, result) VALUES
  ('O=C(CCCCCCCCc1ccccc1)c1c(O)cc(O)c([C@@H]2C[C@@H](c3ccc(O)cc3)Oc3cc(O)ccc32)c1O', 'Ki', '12 µM'),
  ('CCCCCCCCCCCC(=O)c1c(O)cc(O)c([C@@H]2C[C@@H](c3ccc(O)cc3)Oc3cc(O)ccc32)c1O', 'Ki', '11 µM');

###

- system.name: DNA polymerase beta (Rattus norvegicus, UniProt P06766)
- assay: Inhibition of rat recombinant DNA polymerase beta in presence of bovine serum albumin
pIC50: −log10 of the molar value.
recorded.metric: pIC50

INSERT INTO results (smiles_notation, system_name, number) VALUES
  ('O=C(CCCCCCCCc1ccccc1)c1c(O)cc(O)c([C@@H]2C[C@@H](c3ccc(O)cc3)Oc3cc(O)ccc32)c1O', 'DNA polymerase beta (Rattus norvegicus, UniProt P06766)', 5.37),
  ('CCCCCCCCCCCC(=O)c1c(O)cc(O)c([C@@H]2C[C@@H](c3ccc(O)cc3)Oc3cc(O)ccc32)c1O', 'DNA polymerase beta (Rattus norvegicus, UniProt P06766)', 4.92);
